Reference for the values: the supplement of paper PMC11246515

# Run description: total protein half-life in vivo (active degradation + dilution); higher = more stable protein
# Run parameters: wild type E. coli NCM3722; growth: N-lim chemostat; doubling time 12 h
The threshold is inclusive: total protein half-life in vivo of exactly 10 h counts as Y; values below receive N.

{"columns": ["Residues", "Category label"],
 "data": [
  ["MNSCDFRVFLQEFGTTVHLSLPGSVSEKERLLLKLLMQGMSVTEISQYRNRSAKTISHQKKQLFEKLGIQSDITFWRDIFFQYNPEIISATGSNSHRYINDNHYHHIVTPEAISLALENHEFKPWIQPVFCAQTGVLTGCEVLVRWEHPQTGIIPPDQFIPLAESSGLIVIMTRQLMKQTADILMPVKHLLPDNFHIGINVSAGCFLAAGFEKECLNLVNKLGNDKIKLVLELTERNPIPVTPEARAIFDSLHQHNITFALDDFGTGYATYRYLQAFPVDFIKIDKSFVQMASVDEISGHIVDNIVELARKPGLSIVAEGVETQEQADLMIGKGVHFLQGYLYSPPVPGNKFISEWVMKAGG", "Y"],
  ["MNEFFPLASAAGMTVGLAVCALIVGLALAMFFAVWESAKWRPVAWAGSALVTILRGLPEILVVLFIYFGSSQLLLTLSDGFTINLGFVQIPVQMDIENFDVSPFLCGVIALSLLYAAYASQTLRGALKAVPVGQWESGQALGLSKSAIFFRLVMPQMWRHALPGLGNQWLVLLKDTALVSLISVNDLMLQTKSIATRTQEPFTWYIVAAAIYLVITLLSQYILKRIDLRATRFERRPS [P0AE34]", "Y"],
  ["MMKKFIAPLLALLVSGCQIDPYTHAPTLTSTDWYDVGMEDAISGSAIKDDDAFSDSQADRGLYLKGYAEGQKKTCQTDFTYARGLSGKSFPASCNNVENASQLHEVWQKGADENASTIRLN", "N"],
  ["MMRIALFLLTNLAVMVVFGLVLSLTGIQSSSVQGLMIMALLFGFGGSFVSLLMSKWMALRSVGGEVIEQPRNERERWLVNTVATQARQAGIAMPQVAIYHAPDINAFATGARRDASLVAVSTGLLQNMSPDEAEAVIAHEISHIANGDMVTMTLIQGVVNTFVIFISRILAQLAAGFMGGNRDEGEESNGNPLIYFAVATVLELVFGILASIITMWFSRHREFHADAGSAKLVGREKMIAALQRLKTSYEPQEATSMMALCINGKSKSLSELFMTHPPLDKRIEALRTGEYLK", "Y"],
  ["MSKLFWAMLSFITRLPVPRRWSQGLDFEHYSRGIITFPLIGLLLGAISGLVFMVLQAWCGAPLAALFSVLVLVLMTGGFHLDGLADTCDGVFSARSRDRMLEIMRDSRLGTHGGLALIFVVLAKILVLSELALRGESILASLAAACAVSRGTAALLMYRHRYAREEGLGNVFIGKIDGRQTCVTLGLAAIFAAVLLPGMHGVAAMVVTMVAIFILGQLLKRTLGGQTGDTLGAAIELGELVFLLALL", "Y"],
  ["MGKAVIAIHGGAGAISRAQMSLQQELRYIEALSAIVETGQKMLEAGESALDVVTEAVRLLEECPLFNAGIGAVFTRDETHELDACVMDGNTLKAGAVAGVSHLRNPVLAARLVMEQSPHVMMIGEGAENFAFARGMERVSPEIFSTSLRYEQLLAARKEGATVLDHSGAPLDEKQKMGTVGAVALDLDGNLAAATSTGGMTNKLPGRVGDSPLVGAGCYANNASVAVSCTGTGEVFIRALAAYDIAALMDYGGLSLAEACERVVMEKLPALGGSGGLIAIDHEGNVALPFNTEGMYRAWGYAGDTPTTGIYREKGDTVATQ", "N"]
]}
